// values below are reported pest or weed control at 31 g/ha
Test system: blackgrass (Alopecurus myosuroides)
Experiment: Test A postemergence
Type: in vivo
Details: Alopecurus myosuroides, post-emergence, 240 h, Postemergence, 31 g ai/ha; 0 is no effect, 100 is complete control; read-out: Blackgrass plant response rating (0 to 100 scale)
Source text: […]
Response body: numeric value in %, unit text excluded.

Consider the worked cases shown below.
Cc1cccc([C@H]2CN(C)C(=O)[C@@H]2C(=O)Nc2cnccc2C)c1
0
Cc1ccc([C@H]2CN(C)C(=O)[C@@H]2C(=O)Nc2c(F)c(F)c(F)c(F)c2F)cc1
0
Cc1ccc([C@H]2CN(C)C(=O)[C@@H]2C(=O)Nc2cccc(F)c2C#N)cc1
20
CN1C[C@H](c2ccc(Br)cc2)[C@@H](C(=O)Nc2ccc(F)c(F)c2F)C1=O
20

// "CN1C[C@H](c2csc3c2CCC3)[C@@H](C(=O)Nc2cccc(F)c2F)C1=O" : pest or weed control at 31 g/ha value = 0

* * *

// values below are reported Ryegrass, Italian plant response rating (0 to 100 scale)
Test system: ryegrass, Italian (Italian ryegrass, Lolium multiflorum)
Assay: Test A preemergence
Type: in vivo
Conditions: Preemergence, 500 g ai/ha; 0 is no effect, 100 is complete control

Cc1cccc(C2CNC(=O)C2C(=O)Nc2cccc(F)c2F)c1 (racemic) [Compound 373]
40
O=C1NCC(c2cccc(OCC(F)F)c2)C1C(=O)Nc1ccc(F)cc1F (centres unmarked) [Compound 388]
0

Observed Ryegrass, Italian plant response rating (0 to 100 scale), ryegrass, Italian (Italian ryegrass, Lolium multiflorum), O=C1NCC(c2cccc(OC(F)(F)C(F)F)c2)C1C(=O)Nc1ccccc1C(F)F (centres unmarked) [Compound 391] : 50

Observed Ryegrass, Italian plant response rating (0 to 100 scale), ryegrass, Italian (Italian ryegrass, Lolium multiflorum), Cc1ccc(C2CNC(=O)C2C(=O)Nc2ccc(F)c(F)c2F)cc1F (racemic) [Compound 371] : 20

Observed Ryegrass, Italian plant response rating (0 to 100 scale), ryegrass, Italian (Italian ryegrass, Lolium multiflorum), CCCOc1cccc(C2CNC(=O)C2C(=O)Nc2cccc(F)c2F)c1 (racemic) [Compound 380] : 20

* * *

// values below are reported Plant response rating, Ryegrass, Italian
System: ryegrass, Italian (Italian ryegrass, Lolium multiflorum)
Experiment: Test C preemergence
Format: in vivo
Details: 125 g ai/ha, scale 0 to 100, 0 no effect, 100 complete control
Source text: […]
Please give only the number in your answer, with no unit.

Consider the worked cases shown below.
CN1CC(c2cccc(OC(F)F)c2)C(C(=O)Nc2ccccc2F)C1=O (stereo not drawn) [Compound 618]
45
CN1CC(c2ccc(C(F)(F)F)c(F)c2)C(C(=O)Nc2ccccc2S(C)(=O)=O)C1=O (stereo not drawn) [Compound 397]
60

Alright, here's another molecule for you.
Observed Plant response rating, Ryegrass, Italian, ryegrass, Italian (Italian ryegrass, Lolium multiflorum), Cc1cccc(C2CN(C)C(=O)C2C(=O)Nc2cccc(F)c2F)c1 (stereo not drawn) [Compound 667] : 95

* * *

Test system: ducksalad (Heteranthera limosa)
Experiment: Test B flooded paddy test
Assay type: in vivo
Conditions: Heteranthera limosa, 250 g ai/ha, Flood; 0 to 100 scale where 0 is no effect and 100 is complete control; read-out: Ducksalad plant response rating
I'd appreciate it if you marked entries Yes when pest or weed control at 250 g/ha is lower than 50% and No when it is not.

Answered examples (10):
CN1CC(c2cccc(OCC=C(Cl)Cl)c2)C(C(=O)Nc2cccc(F)c2F)C1=O (stereo not shown)
Yes
O=C1NC[C@H](c2nccs2)[C@H]1C(=O)Nc1cccc(F)c1F
Yes
CSc1ccccc1NC(=O)[C@H]1C(=O)N(C)C[C@@H]1c1cccc(C)c1
No
CN1C[C@H](c2ccc3ncccc3c2)[C@@H](C(=O)Nc2cccc(F)c2F)C1=O
Yes
CSc1ccccc1NC(=O)[C@H]1C(=O)NC[C@@H]1c1ccc(C(F)(F)F)cn1
No
O=C1NC[C@H](c2ccc(F)c(OC(F)(F)C(F)F)c2)[C@H]1C(=O)Nc1ccc(F)cc1F (racemic)
No
Cc1ccc([C@H]2CNC(=O)[C@@H]2C(=O)Nc2cccc(F)c2C)cc1C
No
Cc1cc([C@H]2CN(C)C(=O)[C@@H]2C(=O)Nc2cccc(F)c2F)ccc1Br
No
Cc1cc([C@H]2CNC(=O)[C@@H]2C(=O)Nc2ccccc2C(F)(F)F)ccc1Cl
No
Cc1ccc([C@H]2CN(C)C(=O)[C@@H]2C(=O)Nc2cccc(F)c2C)cc1Cl
No

Here's an entry: "O=C1NC[C@H](c2cc(Cl)cc(Cl)c2)[C@H]1C(=O)Nc1cccc(F)c1F" . Is its pest or weed control at 250 g/ha below 50%?
No

Here's an entry: "CC(C)COc1cccc([C@H]2CN(C)C(=O)[C@@H]2C(=O)Nc2ccc(F)cc2F)c1" . Is its pest or weed control at 250 g/ha below 50%?
No

Here's an entry: "O=C1NC[C@H](c2cscn2)[C@H]1C(=O)Nc1cccc(F)c1F" . Is its pest or weed control at 250 g/ha below 50%?
No

Here's an entry: "CC(C)Oc1ccc([C@H]2CNC(=O)[C@@H]2C(=O)Nc2ccc(F)cc2F)cc1" . Is its pest or weed control at 250 g/ha below 50%?
Yes

Here's an entry: "CN1C[C@H](c2cc(F)cc(F)c2)[C@@H](C(=O)Nc2ncccc2Cl)C1=O" . Is its pest or weed control at 250 g/ha below 50%?
Yes

These entries and their values trace back to patent US12077503B2.
